target.of.assay: Proteasome Macropain subunit MB1 (Homo sapiens)
method.summary: Inhibition of chymotrypsin like activity of 26S proteasome beta 5 subunit in human U266 cells assessed as residual activity using N-Suc-LLVY-AMC as substrate at 10 uM preincubated for 1 hr followed by substrate addition and measured after 4 hrs by fluorescence assay relative to control
Type: cell-based
Reported values of Activity for individual entries
Reply numerically in %, unit not repeated.

Example entries and their recorded answers appear below.
[
  {
    "compound": "CC(C)CC(C=O)NC(=O)[C@H](Cc1ccccc1)NC(=O)[C@H](CC(C)C)NC(=O)c1cc(Cl)ccc1OCc1ccccc1 (stereo partly specified)",
    "value.type": "Activity",
    "numeric.result": 13.4
  },
  {
    "compound": "CC(C)C[C@H](NC(=O)c1cc(Cl)ccc1OCc1ccccc1)C(=O)N[C@@H](Cc1ccccc1)C(=O)N[C@@H](C=O)CC(C)C",
    "value.type": "Activity",
    "numeric.result": 20.7
  }
]

Inquiry: Enter reported Activity observed with Proteasome Macropain subunit MB1 (Homo sapiens) for CC(C)CC(C=O)NC(=O)[C@H](CC(C)C)NC(=O)[C@H](CC(C)C)NC(=O)c1cc(Cl)ccc1OCc1ccccc1 (stereo partly specified)
Reply text: 10.4

Inquiry: Enter reported Activity observed with Proteasome Macropain subunit MB1 (Homo sapiens) for O=C[C@H](Cc1ccccc1)NC(=O)[C@H](Cc1ccccc1)NC(=O)c1cc(Cl)ccc1OCc1ccccc1
Reply text: 97.3

Inquiry: Enter reported Activity observed with Proteasome Macropain subunit MB1 (Homo sapiens) for CC(C)C[C@H](NC(=O)c1cc(Cl)ccc1OCc1ccccc1)C(=O)N[C@H](C=O)Cc1ccccc1
Reply text: 85.2

Inquiry: Enter reported Activity observed with Proteasome Macropain subunit MB1 (Homo sapiens) for CC(C)C[C@H](NC(=O)c1cc(Cl)ccc1O)C(=O)N[C@@H](Cc1ccccc1)C(=O)N[C@H](C=O)Cc1ccccc1
Reply text: 71.7

Inquiry: Enter reported Activity observed with Proteasome Macropain subunit MB1 (Homo sapiens) for CC(C)CC(C=O)NC(=O)[C@H](CC(C)C)NC(=O)c1cc(Cl)ccc1OCc1ccccc1 (stereo partly specified)
Reply text: 84.3

Inquiry: Enter reported Activity observed with Proteasome Macropain subunit MB1 (Homo sapiens) for CC(C)C[C@H](NC(=O)c1cc(Cl)ccc1OCc1ccccc1)C(=O)N[C@@H](CC(C)C)C(=O)NC(C=O)Cc1ccccc1 (stereo partly specified)
Reply text: 27.9

----------
target.of.assay: Proteasome Macropain subunit MB1 (Homo sapiens, UniProt P28074)
Sequence (P28074 whole entry): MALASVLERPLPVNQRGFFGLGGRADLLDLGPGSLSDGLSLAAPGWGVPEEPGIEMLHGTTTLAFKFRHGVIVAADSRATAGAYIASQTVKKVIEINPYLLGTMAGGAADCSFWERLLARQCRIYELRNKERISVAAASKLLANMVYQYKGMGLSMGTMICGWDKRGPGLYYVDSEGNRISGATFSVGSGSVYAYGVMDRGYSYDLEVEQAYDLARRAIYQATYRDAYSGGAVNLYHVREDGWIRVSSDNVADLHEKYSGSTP
method.summary: Inhibition of chymotrypsin-like activity of 26S proteasome beta 5 subunit in human U266 cells using Suc-LLVY-aminoluciferin as substrate after 1 hr by Proteosome-Glo luminescence assay
value.type: pIC50
Notebook: values listed as pIC50 are -log10 of the concentration (mol/L).

Example entries and their recorded answers appear below.
[
  {
    "compound": "CC(C)C[C@@H](C=O)NC(=O)[C@H](Cc1ccccc1)NC(=O)[C@H](CC(C)C)NC(=O)c1cc(Cl)ccc1OCc1ccccc1",
    "pIC50": 7.17
  },
  {
    "compound": "CC(C)CC(C=O)NC(=O)[C@H](Cc1ccccc1)NC(=O)[C@H](CC(C)C)NC(=O)c1cc(Cl)ccc1OCc1ccccc1 (some centres undefined)",
    "pIC50": 7.05
  },
  {
    "compound": "CC(C)C[C@H](NC(=O)c1cc(Cl)ccc1O)C(=O)N[C@@H](Cc1ccccc1)C(=O)N[C@H](C=O)Cc1ccccc1",
    "pIC50": 6.13
  }
]

Inquiry: So what does the record say about pIC50 for CC(C)CC(C=O)NC(=O)[C@H](CC(C)C)NC(=O)[C@H](CC(C)C)NC(=O)c1cc(Cl)ccc1OCc1ccccc1 (some centres undefined) ?
Reply text: 7.00

Inquiry: So what does the record say about pIC50 for CC(C)C[C@@H](C=O)NC(=O)[C@H](CC(C)C)NC(=O)[C@H](CC(C)C)NC(=O)c1cc(Cl)ccc1OCc1ccccc1 ?
Reply text: 7.24

Inquiry: So what does the record say about pIC50 for CC(C)C[C@H](NC(=O)c1cc(Cl)ccc1OCc1ccccc1)C(=O)N[C@@H](Cc1ccccc1)C(=O)N[C@@H](C=O)CC(C)C ?
Reply text: 7.12

Inquiry: So what does the record say about pIC50 for CC(C)C[C@H](NC(=O)c1cc(Cl)ccc1OCc1ccccc1)C(=O)N[C@@H](Cc1ccccc1)C(=O)N[C@H](C=O)Cc1ccccc1 ?
Reply text: 6.96

Inquiry: So what does the record say about pIC50 for CC(C)C[C@H](NC(=O)c1cc(Cl)ccc1OCc1ccccc1)C(=O)N[C@@H](CC(C)C)C(=O)N[C@@H](C=O)CC(C)C ?
Reply text: 6.74

All values here come from ChEMBL document CHEMBL4052623.
